- Experimental System: KRas^G12S (Homo sapiens, UniProt P01116, G12S)
- Construct: […]; biotin (biotinylated)
- Sequence (P01116 1-169 isoform P01116-2 G12S): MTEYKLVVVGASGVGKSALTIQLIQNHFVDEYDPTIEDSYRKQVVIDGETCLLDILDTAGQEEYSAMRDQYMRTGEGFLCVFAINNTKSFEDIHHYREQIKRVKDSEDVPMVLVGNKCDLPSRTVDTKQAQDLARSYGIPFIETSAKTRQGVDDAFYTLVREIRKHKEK
- Test Method Notes: KRas binding assay (TR-FRET displacement of Cy5 labelled tracer)
Experimental Readout: pIC50
On this scale, pIC50 is minus log10 of a concentration expressed in M (mol/L).

Consider the worked cases shown below.
>>> measurement("CCc1cccc2cccc(N3CCc4c(nc(OCC56CCCN5CCC6)nc4N4CCCC(c5ccno5)C4)C3)c12 (centres unmarked) [Example 99]")
5.90
>>> measurement("CCc1c(F)ccc2cc(O)cc(N3CCc4c(nc(OC[C@@]56CCCN5C[C@H](F)C6)nc4N4CCCC(c5ncn[nH]5)C4)C3)c12 (some centres unmarked) [Example 19]")
8.05
>>> measurement("CCc1c(F)ccc2cc(O)cc(N3CCc4c(nc(OC[C@@]56CCCN5C[C@H](F)C6)nc4NCc4c[nH]c5ncccc45)C3)c12 [Example 23]")
7.92
>>> measurement("CCc1cccc2cccc(N3CCc4c(nc(OCC56CCCN5CCC6)nc4N4CCCC(S(=O)(=O)NC)C4)C3)c12 (centres unmarked) [Example 125]")
6.18
>>> measurement("CCc1cccc2cccc(N3CCc4c(nc(OCC56CCCN5CCC6)nc4N4CCCC(n5ccc(C)n5)C4)C3)c12 (centres unmarked) [Example 94]")
6.05

Recorded result, CCc1cccc2cccc(N3CCc4c(nc(OCC56CCCN5CCC6)nc4N4CCOCC(n5cncn5)C4)C3)c12 (centres unmarked) [Example 88] , pIC50: 6.30

Recorded result, CCc1cccc2cccc(N3CCc4c(nc(OCC56CCCN5CCC6)nc4N4CCCCCCC4)C3)c12 [Example 54] , pIC50: 6.03

Recorded result, CCc1cccc2cccc(N3CCc4c(nc(OCC56CCCN5CCC6)nc4N4CCCC(c5c[nH]cn5)C4)C3)c12 (centres unmarked) [Example 116] , pIC50: 5.83

Recorded result, CCc1cccc2cccc(N3CCc4c(nc(OCC56CCCN5CCC6)nc4N4CCCC(c5nc(=O)[nH][nH]5)C4)C3)c12 (centres unmarked) [Example 104] , pIC50: 5.95

Recorded result, CCc1cccc2cccc(N3CCc4c(nc(OCC56CCCN5CCC6)nc4N4CCCC(c5ncc(C)s5)C4)C3)c12 (centres unmarked) [Example 135] , pIC50: 5.62

Recorded result, CCc1cccc2cccc(N3CCc4c(nc(OCC56CCCN5CCC6)nc4N4CCCCCC4)C3)c12 [Example 49] , pIC50: 6.44

Recorded result, CCc1cccc2cccc(N3CCc4c(nc(OCC56CCCN5CCC6)nc4N4CCCC(c5n[nH]c(C)n5)C4)C3)c12 (centres unmarked) [Example 93] , pIC50: 6.16

Recorded result, CCc1cccc2cccc(N3CCc4c(nc(OCC56CCCN5CCC6)nc4N4CCCC(N5CCCC5=O)C4)C3)c12 (centres unmarked) [Example 137] , pIC50: 5.97

###

- Experimental System: KRas^G12R (Homo sapiens, UniProt P01116, G12R)
- Construct: […]; biotin (biotinylated)
- Sequence (P01116 1-169 isoform P01116-2 G12R): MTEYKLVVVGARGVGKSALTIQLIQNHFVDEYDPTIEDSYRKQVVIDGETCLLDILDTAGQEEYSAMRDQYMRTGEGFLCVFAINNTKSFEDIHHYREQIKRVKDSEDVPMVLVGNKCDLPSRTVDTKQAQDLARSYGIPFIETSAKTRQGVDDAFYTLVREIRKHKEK
- Test Method Notes: KRas binding assay (TR-FRET displacement of Cy5 labelled tracer)
Experimental Readout: IC50

>>> measurement("O=C1NCC2(CCCN(c3nc(OC[C@@]45CCCN4C[C@H](F)C5)nc4c3CCN(c3cc(O)cc5ccc(F)c(Cl)c35)C4)C2)N1 (stereo partly drawn)")
"≤ 2 nM"

Recorded result, `C[C@@]1(O)CCCN(c2nc(OCC34CCCN3CCC4)nc3c2CCN(c2cc(O)cc(Cl)c2C2CC2)C3)C1` , IC50: 9 nM

Recorded result, O=C1NC(=O)C2CN(c3nc(OC[C@@]45CCCN4C[C@H](F)C5)nc4c3CCN(c3cc(O)cc5ccc(F)c(Cl)c35)C4)CC12 (stereo partly drawn) , IC50: ≤ 2 nM

###

- Experimental System: KRas^G13D (Homo sapiens, UniProt P01116, G13D)
- Sequence (P01116 1-169 isoform P01116-2 G13D): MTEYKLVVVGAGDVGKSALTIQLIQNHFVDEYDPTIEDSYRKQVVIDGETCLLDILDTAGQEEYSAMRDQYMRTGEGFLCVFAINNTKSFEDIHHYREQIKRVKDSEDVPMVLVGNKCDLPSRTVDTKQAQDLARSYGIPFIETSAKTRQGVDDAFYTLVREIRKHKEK
- Test Method Notes: biochemical
pIC50: −log10 of the molar value.
If the reported pIC50 equals or exceeds 6, assign Condition met. If not, assign Condition not met.

Look over these answered cases.
>>> assigned_label("CCc1cccc2cccc(N3CCc4c(nc(OCC56CCCN5CCC6)nc4N4CCn5ncc(S(C)(=O)=O)c5C4)C3)c12")
"Condition not met"
>>> assigned_label("CCc1cccc2cccc(N3CCc4c(nc(OCC56CCCN5CCC6)nc4N4C[C@@H](C)C[C@@H](O)C4)C3)c12")
"Condition met"

Decide: is the reported value of pIC50 for CCc1cccc2cccc(N3CCc4c(nc(OCC56CCCN5CCC6)nc4N4CCC(O)CC(C)C4)C3)c12 (stereo not shown) equal to or greater than 6?
Condition met

Decide: is the reported value of pIC50 for O=C1NC(=O)C2CN(c3nc(OCC45CCCN4CCC5)nc4c3CCN(c3cccc5cccc(Cl)c35)C4)CC12 (stereo not shown) equal to or greater than 6?
Condition met

Decide: is the reported value of pIC50 for `CCc1cccc2cccc(N3CCc4c(nc(OCC56CCCN5CCC6)nc4N4CCCc5ncccc5C4)C3)c12` equal to or greater than 6?
Condition not met

Decide: is the reported value of pIC50 for CCc1cccc2cccc(N3CCc4c(nc(OCC56CCCN5CCC6)nc4N4CCCC(P(C)(C)=O)C4)C3)c12 (stereo not shown) equal to or greater than 6?
Condition met

###

- Experimental System: KRas^G12S (Homo sapiens, UniProt P01116, G12S)
- Construct: […]; biotin (biotinylated)
- Test Method Notes: KRas binding assay (TR-FRET displacement of Cy5 labelled tracer)
IC50: recorded values
Answer in nM, number only, no unit symbol.

Recorded result, CCc1cccc2cccc(N3CCc4c(nc(OCC56CCCN5CCC6)nc4N4CCCC(O)CC4)C3)c12 (stereo not shown) , IC50: 107

###

- Experimental System: KRas^G12A (Homo sapiens, UniProt P01116, G12A)
- Construct: […]; biotin (biotinylated); purchased Accelegan Inc
- Sequence (P01116 1-169 isoform P01116-2 G12A): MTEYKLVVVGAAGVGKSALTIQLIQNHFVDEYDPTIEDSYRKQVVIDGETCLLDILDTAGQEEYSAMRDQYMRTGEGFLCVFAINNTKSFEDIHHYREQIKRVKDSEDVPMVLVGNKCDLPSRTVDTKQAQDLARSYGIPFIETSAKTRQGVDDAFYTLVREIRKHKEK
- Test Method Notes: KRas binding assay (TR-FRET displacement of Cy5 labelled tracer)
Experimental Readout: pIC50
On this scale, pIC50 is minus log10 of a concentration expressed in M (mol/L).

Consider the worked cases shown below.
>>> measurement("CCc1cccc2cccc(N3CCc4c(nc(OCC56CCCN5CCC6)nc4N4CCCC(c5cn(C)nn5)C4)C3)c12 (stereo not drawn)")
6.06
>>> measurement("CCc1cccc2cccc(N3CCc4c(nc(OCC56CCCN5CCC6)nc4NC4CCc5ncsc5C4)C3)c12 (stereo not drawn)")
4.96
>>> measurement("CCc1cccc2cccc(N3CCc4c(nc(OCC56CCCN5CCC6)nc4N4CCCC(c5n[nH]c(C6CC6)n5)C4)C3)c12 (stereo not drawn)")
6.18
>>> measurement("CCc1cccc2cccc(N3CCc4c(nc(OCC56CCCN5CCC6)nc4N4CCCC(S(=O)(=O)NC)C4)C3)c12 (stereo not drawn)")
5.88
>>> measurement("CCc1cccc2cccc(N3CCc4c(nc(OCC56CCCN5CCC6)nc4N4CCCCC(C)C4)C3)c12 (stereo not drawn)")
6.19

Then this molecule:
Recorded result, CCc1cccc2cccc(N3CCc4c(nc(OCC56CCCN5CCC6)nc4N4CCOC5(CCSC5)C4)C3)c12 (stereo not drawn) , pIC50: 5.84

###

- Experimental System: KRas^G12S (Homo sapiens, UniProt P01116, G12S)
- Construct: […]; biotin (biotinylated); purchased Accelegan Inc
- Test Method Notes: KRas binding assay (TR-FRET displacement of Cy5 labelled tracer)
Experimental Readout: IC50 (nM)
Answer in nM, number only, no unit symbol.

Recorded result, CCc1cccc2cccc(N3CCc4c(nc(OCC56CCCN5CCC6)nc4N4CCCC(C(C)O)C4)C3)c12 (centres unmarked) , IC50: 1350

Recorded result, `CCc1cccc2cccc(N3CCc4c(nc(OCC56CCCN5CCC6)nc4N4CCCN(C(=O)c5ccco5)CC4)C3)c12` , IC50: 3090

###

- Experimental System: KRas^G12C (Homo sapiens, UniProt P01116, G12C)
- Sequence (P01116 1-169 isoform P01116-2 G12C): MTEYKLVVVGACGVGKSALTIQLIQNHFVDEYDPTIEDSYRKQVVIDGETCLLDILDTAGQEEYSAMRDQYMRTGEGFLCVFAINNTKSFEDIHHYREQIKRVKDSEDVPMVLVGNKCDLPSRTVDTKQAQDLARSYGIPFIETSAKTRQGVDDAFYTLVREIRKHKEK
- Test Method Notes: biochemical
IC50: recorded values
Answer in µM, number only, no unit symbol.

>>> measurement("CCc1cccc2cccc(N3CCc4c(nc(OCC56CCCN5CCC6)nc4N4CC5CC(O)CC4C5)C3)c12 (stereo not shown) [Example 41]")
0.52
>>> measurement("CCc1cccc2cccc(N3CCc4c(nc(OCC56CCCN5CCC6)nc4N4CCCn5nc(C)cc5C4)C3)c12 [Example 56]")
1.65
>>> measurement("CCc1cccc2cccc(N3CCc4c(nc(OCC56CCCN5CCC6)nc4NCc4nc5ncccc5o4)C3)c12 [Example 157]")
7.02

Then this compound:
Recorded result, CCc1cccc2cccc(N3CCc4c(nc(OCC56CCCN5CCC6)nc4N4CCCC(c5nc(=O)[nH][nH]5)C4)C3)c12 (stereo not shown) [Example 104] , IC50: 0.894
